# test_system: T1, His-tagged cynomolgus monkey CD38 (ACRO Biosystems, CD8-05223 [sic]) (cynomolgus monkey, UniProt Q5VAN0 43-301)
# T1 construct: bought protein; used for ELISA coating and as SPR analyte; not shown: His tag
# experiment_summary: SPR, IgG
Below: a set of entries, each annotated with reported Kd.
The answer is to be given in nM; state only the numeric part.

>>> experimental_result("40769p2.2.A5 IgG (antibody, V domains shown, IgG) VH: EVQLLESGGGLIQPGGSLRLSCTASGFDFSSYGMHWVRQAPGKGLEWVGIISDTGGTTYYGDSVKGRFTISRDNSKSTLYLQMNSLRAEDTALYYCASYIMDVWGQGTTVTVSS VL: QSVLTQPPSASGTPGQRVTISCSGSNSNVGDNAVYWYQQLPGTAPKLLFYGTNRRPSGVPDRFSGSKSGTSASLAISGLQSEDEADYYCAAWDDSLNAWVFGGGTKLTVL")
221
>>> experimental_result("40769p2.2.H4 IgG (antibody, V domains shown, IgG) VH: EVQLLESGGGLVQPGGSLRLSCAASGFDFSSYWMNWVRQAPGKGLEWVSTISSGGSIIYYADSVKGQFTISRDNSKNTLYLQMNSLRAEDTAVYYCAKDNWNDYYGMDVWGQGTTVTVSS VL: QSVPTQPPSASGTPGQRVTISCSGSSSNIRDNYVYWYQQVPGTAPKLLIYKDDQRPSGVPDRFSGSKSGTSASLAISGLQSEDEADYYCATWDGSLNARVFGGGTKLTVL")
167
>>> experimental_result("40769p2.1.E8 IgG (antibody, V domains shown, IgG) VH: EVQLLESGGGLVQPGGSLRLSCTGFGFTFTDARMSWVRQAPGKGLEWVADISSYGDNTYYADSVKGRFTISRDNSANTLYVQMNSLRAEDTAVYYCAKRMEREVMTIKLDYHAMDVWGQGTTVTVSS VL: QSVLTQTPSVSGTPGQRVTISCSGVFNIRNYVSWYQQLPGTAPKLLIFKDDQRPSGVPDRFSGSRSGTSASLAISGLQSEDEADYYCAAWDIFLNVWVFGGGTKLTVL")
0.35

Next up:
Q: Return reported Kd; argument: 40769p2.1.H12 IgG (antibody, V domains shown, IgG) VH: EVQLLESGGGLIQPGGSLRLSCTASGFDFSSYGMHWVRQAPGKGLEWVGIISDSGGTTYYADSVKGRFTISRDNSKNTLYLQMNSLRAEDTALYYCASYIMDVWGQGITVTVSS VL: QSVLTQPPSASGTPGQRVTISCSGSNSNVGVNSVYWYQQLPGTAPKLLIYGSGRRPSGVPDRFSVSKSGTSASLAISGLQSEDEADYYCAAWDDGLNAWVFGGGTKLTVL
A: 316
